- system tested: UniProtKB P23977
- Sequence (P23977 whole entry): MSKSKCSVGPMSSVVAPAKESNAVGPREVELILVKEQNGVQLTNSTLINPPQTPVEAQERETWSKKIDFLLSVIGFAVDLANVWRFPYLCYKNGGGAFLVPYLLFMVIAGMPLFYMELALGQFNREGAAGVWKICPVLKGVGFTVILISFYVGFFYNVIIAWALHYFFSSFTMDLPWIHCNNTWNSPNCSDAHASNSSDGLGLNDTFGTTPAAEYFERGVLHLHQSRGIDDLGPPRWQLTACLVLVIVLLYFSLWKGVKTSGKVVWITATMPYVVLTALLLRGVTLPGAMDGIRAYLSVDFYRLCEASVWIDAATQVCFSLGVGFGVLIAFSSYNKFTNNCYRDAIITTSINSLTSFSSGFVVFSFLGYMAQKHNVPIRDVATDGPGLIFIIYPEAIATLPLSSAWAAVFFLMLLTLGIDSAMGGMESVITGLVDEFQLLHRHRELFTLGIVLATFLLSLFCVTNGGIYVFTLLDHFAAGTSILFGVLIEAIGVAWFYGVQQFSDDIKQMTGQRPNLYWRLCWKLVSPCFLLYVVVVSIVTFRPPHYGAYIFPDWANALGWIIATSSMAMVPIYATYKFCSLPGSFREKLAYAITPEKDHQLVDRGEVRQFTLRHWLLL
pIC50: −log10 of the molar value.
Use condition met when the recorded pIC50 is no lower than 7; use condition not met when it is lower.

Task: Is reported pIC50 greater than or equal to 7 here: `COC(=O)[C@H]1[C@@H](OC(=O)c2ccc(I)cc2O)C[C@H]2CC[C@H]1N2C`
Result: condition not met

Task: And then `CN1CCC(OC(=O)c2ccc(I)cc2)CC1` , what is it?
Result: condition not met

Task: And then `COC(=O)[C@H]1[C@@H](OC(=O)c2ccccc2O)C[C@H]2CC[C@H]1N2C` , what is it?
Result: condition met

Task: And then `COC(=O)[C@@H]1C2CC[C@H](C[C@@H]1OC(=O)c1cccc(O)c1)N2C` , what is it?
Result: condition not met

Task: And then COC(=O)C1CN(C)CC[C@@H]1OC(=O)c1ccc(I)cc1 (some centres not stated) , what is it?
Result: condition not met

Numbers sourced from ChEMBL document CHEMBL1130389.
